# Test system: CAL-51
# PROTOCOL NOTES: normalised response (% of control), CellTiter-Glo; higher = more viable cells (100 = DMSO, 0 = benzethonium chloride kill control)
# CONDITIONS: incubation time: 72 h
The entries below come with measured normalised response values attached.
State the answer as a number, implicitly in %.

molecule CS(=O)(=O)c1ccc(C(=O)Nc2ccc(Cl)c(-c3ccccn3)c2)c(Cl)c1 [Vismodegib] (10 nM) , normalised response observed: 126

molecule OC[C@H]1O[C@@H](n2cnc3c2N=CNC[C@H]3O)C[C@@H]1O [Pentostatin] (1 nM) , normalised response observed: 111

molecule C[C@]1(c2nc3c(C(N)=O)cccc3[nH]2)CCCN1 [Veliparib] (1000 nM) , normalised response observed: 72.6

molecule CO[C@H]1C[C@@H]2CC[C@@H](C)[C@@](O)(O2)C(=O)C(=O)N2CCCC[C@H]2C(=O)O[C@H]([C@H](C)C[C@@H]2CC[C@@H](OC(=O)C(C)(CO)CO)[C@H](OC)C2)CC(=O)[C@H](C)/C=C(\C)[C@@H](O)[C@@H](OC)C(=O)[C@H](C)C[C@H](C)/C=C/C=C/C=C/1C [Temsirolimus] (0.01 nM) , normalised response observed: 115

molecule Clc1ccc(C(c2ccccc2Cl)C(Cl)Cl)cc1 (stereo not drawn) [Mitotane] (1000 nM) , normalised response observed: 98.3

----------
# System: CAL-85-1
# PROTOCOL NOTES: normalised viability (% of control), CellTiter-Blue; higher = more viable cells (100 = DMSO, 0 = benzethonium chloride kill control)
# CONDITIONS: incubation time: 72 h
Lab note: anything with normalised viability below 90% is marked yes (1); values at 90% or higher are marked no (0).

CC[C@]1(O)C[C@@H]2CN(CCc3c([nH]c4ccccc34)[C@@](C(=O)OC)(c3cc4c(cc3OC)N(C)[C@H]3[C@@](O)(C(=O)OC)[C@H](OC(C)=O)[C@]5(CC)C=CCN6CC[C@]43[C@@H]65)C2)C1 [Vinblastine] (0.1 nM) : yes (1)
Cc1ccc(F)c(NC(=O)Nc2ccc(-c3cccc4[nH]nc(N)c34)cc2)c1 [Linifanib] (0.1 nM) : no (0)
CO[C@H]1C[C@@H]2CC[C@@H](C)[C@@](O)(O2)C(=O)C(=O)N2CCCC[C@H]2C(=O)O[C@H]([C@H](C)C[C@@H]2CC[C@@H](OC(=O)C(C)(CO)CO)[C@H](OC)C2)CC(=O)[C@H](C)/C=C(\C)[C@@H](O)[C@@H](OC)C(=O)[C@H](C)C[C@H](C)/C=C/C=C/C=C/1C [Temsirolimus] (0.1 nM) : yes (1)
COc1cccc2cc(-c3nc([C@H]4CC[C@H](C(=O)O)CC4)n4ncnc(N)c34)[nH]c12 [OSI-027] (1 nM) : no (0)

Does the reported normalised viability of the following compound sit strictly below 90%? Nc1ccn([C@@H]2O[C@H](CO)[C@@H](O)[C@@H]2O)c(=O)n1 [Cytarabine] (1 nM)
no (0)

Does the reported normalised viability of the following compound sit strictly below 90%? Nc1nc(Cl)nc2c1ncn2[C@H]1C[C@H](O)[C@@H](CO)O1 [Cladribine] (0.1 nM)
yes (1)

Does the reported normalised viability of the following compound sit strictly below 90%? C=CC[C@@H]1/C=C(\C)C[C@H](C)C[C@H](OC)[C@H]2O[C@@](O)(C(=O)C(=O)N3CCCC[C@H]3C(=O)O[C@H](/C(C)=C/[C@@H]3CC[C@@H](O)[C@H](OC)C3)[C@H](C)[C@@H](O)CC1=O)[C@H](C)C[C@@H]2OC [Tacrolimus] (1 nM)
no (0)

Does the reported normalised viability of the following compound sit strictly below 90%? CS(=O)(=O)c1ccc(C(=O)Nc2ccc(Cl)c(-c3ccccn3)c2)c(Cl)c1 [Vismodegib] (1 nM)
no (0)

Does the reported normalised viability of the following compound sit strictly below 90%? CN(C)C/C=C/C(=O)Nc1cc2c(Nc3ccc(F)c(Cl)c3)ncnc2cc1O[C@H]1CCOC1 [Afatinib] (1 nM)
yes (1)

----------
The entries below come with measured normalised response values attached.
# System: BT-474
# PROTOCOL NOTES: normalised response (% of control), CellTiter-Glo; higher = more viable cells (100 = DMSO, 0 = benzethonium chloride kill control)
# CONDITIONS: incubation time: 72 h
State the answer as a number, implicitly in %.

molecule Cc1c2oc3c(C)ccc(C(=O)N[C@@H]4C(=O)N[C@H](C(C)C)C(=O)N5CCC[C@H]5C(=O)N(C)CC(=O)N(C)[C@@H](C(C)C)C(=O)O[C@@H]4C)c3nc-2c(C(=O)N[C@@H]2C(=O)N[C@H](C(C)C)C(=O)N3CCC[C@H]3C(=O)N(C)CC(=O)N(C)[C@@H](C(C)C)C(=O)O[C@@H]2C)c(N)c1=O [Dactinomycin] (0.1 nM) , normalised response observed: 96

molecule Nc1nc(Cl)nc2c1ncn2[C@H]1C[C@H](O)[C@@H](CO)O1 [Cladribine] (100 nM) , normalised response observed: 97.1

molecule C=CCNC1=C2C[C@@H](C)C[C@H](OC)[C@H](O)[C@@H](C)/C=C(\C)[C@H](OC(N)=O)[C@@H](OC)/C=C\C=C(/C)C(=O)NC(=CC1=O)C2=O [Tanespimycin] (10 nM) , normalised response observed: 90.4

molecule CN1CCC(COc2cnc(-c3cccc(Cn4nc(-c5cccc(C#N)c5)ccc4=O)c3)nc2)CC1 (1 nM) , normalised response observed: 101

molecule CN1CCC(COc2cnc(-c3cccc(Cn4nc(-c5cccc(C#N)c5)ccc4=O)c3)nc2)CC1 (100 nM) , normalised response observed: 92.7

----------
# Tested on: DU-4475
# PROTOCOL NOTES: normalised response (% of control), CellTiter-Glo; higher = more viable cells (100 = DMSO, 0 = benzethonium chloride kill control)
# CONDITIONS: incubation time: 72 h
The entries below come with measured normalised response values attached.
Report as: number unit

Reported DU-4475 normalised response for item OC[C@H]1O[C@@H](n2cnc3c2N=CNC[C@H]3O)C[C@@H]1O [Pentostatin] (10000 nM) was 99.8%

Reported DU-4475 normalised response for item C[C@]1(c2nc3c(C(N)=O)cccc3[nH]2)CCCN1 [Veliparib] (10000 nM) was 96.8%

Reported DU-4475 normalised response for item CC(=O)O[C@]1(C(C)=O)CC[C@H]2[C@@H]3C=C(C)C4=CC(=O)CC[C@]4(C)[C@H]3CC[C@@]21C [Megestrol acetate] (10000 nM) was 93.9%

Reported DU-4475 normalised response for item COc1cccc2c1C(=O)c1c(O)c3c(c(O)c1C2=O)C[C@@](O)(C(=O)CO)C[C@@H]3O[C@H]1C[C@H](N)[C@H](O)[C@H](C)O1 [Doxorubicin] (1000 nM) was 0.14%

Reported DU-4475 normalised response for item CN1CC[C@H](c2c(O)cc(O)c3c(=O)cc(-c4ccccc4Cl)oc23)[C@H](O)C1 [Alvocidib] (10000 nM) was 8.12%

Reported DU-4475 normalised response for item CO[C@H]1C[C@@H]2CC[C@@H](C)[C@@](O)(O2)C(=O)C(=O)N2CCCC[C@H]2C(=O)O[C@H]([C@H](C)C[C@@H]2CC[C@@H](OC(=O)C(C)(CO)CO)[C@H](OC)C2)CC(=O)[C@H](C)/C=C(\C)[C@@H](O)[C@@H](OC)C(=O)[C@H](C)C[C@H](C)/C=C/C=C/C=C/1C [Temsirolimus] (100 nM) was 73.6%

Reported DU-4475 normalised response for item CS(=O)(=O)c1ccc(C(=O)Nc2ccc(Cl)c(-c3ccccn3)c2)c(Cl)c1 [Vismodegib] (10000 nM) was 97.8%

Reported DU-4475 normalised response for item C=CC[C@@H]1/C=C(\C)C[C@H](C)C[C@H](OC)[C@H]2O[C@@](O)(C(=O)C(=O)N3CCCC[C@H]3C(=O)O[C@H](/C(C)=C/[C@@H]3CC[C@@H](O)[C@H](OC)C3)[C@H](C)[C@@H](O)CC1=O)[C@H](C)C[C@@H]2OC [Tacrolimus] (10000 nM) was 103%

----------
# Tested on: Hs578T
# PROTOCOL NOTES: normalised response (% of control), CellTiter-Glo; higher = more viable cells (100 = DMSO, 0 = benzethonium chloride kill control)
# CONDITIONS: incubation time: 72 h
ASSAY ENDPOINT: normalised response

Solved entries:
O=C(c1ccc(C(=O)N2CCC(N3CCCC3)CC2)c(Nc2ccccc2)c1)N1CCC(N2CCCC2)CC1 [UNC1215] (3 nM) : 99.1%
Cc1ccc(F)c(NC(=O)Nc2ccc(-c3cccc4[nH]nc(N)c34)cc2)c1 [Linifanib] (100 nM) : 98%

compound Clc1ccc(C(c2ccccc2Cl)C(Cl)Cl)cc1 (stereo unspecified) [Mitotane] (1000 nM) , normalised response observed: 104%

compound C=CC[C@@H]1/C=C(\C)C[C@H](C)C[C@H](OC)[C@H]2O[C@@](O)(C(=O)C(=O)N3CCCC[C@H]3C(=O)O[C@H](/C(C)=C/[C@@H]3CC[C@@H](O)[C@H](OC)C3)[C@H](C)[C@@H](O)CC1=O)[C@H](C)C[C@@H]2OC [Tacrolimus] (1 nM) , normalised response observed: 99.1%

compound C=CC[C@@H]1/C=C(\C)C[C@H](C)C[C@H](OC)[C@H]2O[C@@](O)(C(=O)C(=O)N3CCCC[C@H]3C(=O)O[C@H](/C(C)=C/[C@@H]3CC[C@@H](O)[C@H](OC)C3)[C@H](C)[C@@H](O)CC1=O)[C@H](C)C[C@@H]2OC [Tacrolimus] (10 nM) , normalised response observed: 103%

compound CN1CCC(COc2cnc(-c3cccc(Cn4nc(-c5cccc(C#N)c5)ccc4=O)c3)nc2)CC1 (1 nM) , normalised response observed: 96.7%
